# Assay System: MAO-B (Homo sapiens)
pKi: −log10 of the molar value.
Recorded Metric: pKi

1) COc1cc2ccc(=O)oc2cc1O; 4.10

====

# Assay System: MAO-B (Homo sapiens, UniProt P27338)
# Assay: MAO-B inhibition assay (kynuramine, fluorescence)
# Type: biochemical
Recorded Metric: IC50 (µM)

1. COc1cc2ccc(=O)oc2cc1O; 40.2

====

# Assay System: UniProtKB P27338
# Sequence (P27338 1-520): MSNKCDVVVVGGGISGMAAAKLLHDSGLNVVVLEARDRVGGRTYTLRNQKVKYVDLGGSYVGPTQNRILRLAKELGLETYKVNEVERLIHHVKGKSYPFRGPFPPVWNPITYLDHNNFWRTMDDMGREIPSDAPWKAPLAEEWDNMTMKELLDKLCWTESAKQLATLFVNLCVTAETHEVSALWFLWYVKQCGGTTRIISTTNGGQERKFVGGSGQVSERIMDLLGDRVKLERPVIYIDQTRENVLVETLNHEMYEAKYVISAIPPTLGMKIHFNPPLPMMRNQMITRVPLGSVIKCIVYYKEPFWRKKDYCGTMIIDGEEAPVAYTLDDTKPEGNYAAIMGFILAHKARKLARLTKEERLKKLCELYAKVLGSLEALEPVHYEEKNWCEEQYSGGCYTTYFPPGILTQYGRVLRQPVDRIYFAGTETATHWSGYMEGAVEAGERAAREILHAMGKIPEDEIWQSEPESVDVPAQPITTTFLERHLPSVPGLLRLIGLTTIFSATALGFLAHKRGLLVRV
# Assay: MAO-B inhibition assay (kynuramine, fluorescence)
# Type: biochemical
# Settings: MAO-B; 50 μM; read-out: Inhibition rate ± SD (%) (50 μM)
Recorded Metric: inhibition at 50 µM

1. CCCCC/C=C\C/C=C\CCCCCCCC(=O)O [Compound 15, linolic acid]; 18%
2. O=C(O)c1ccc(O)cc1 [Compound 18, paraben-acid]; 8.29%
3. CC1=CC(=O)CC(C)(C)[C@H]1CC[C@@H](C)O [Compound 4, blumenol C]; 16.5%
4. CC(C)c1cc2c(cc1O)[C@@]1(C)CCCC(C)(C)[C@@H]1C=C2 [Compound 9, 6,7-dehydroferruginol]; 7.04%
5. COC(=O)c1ccc(O)cn1 [Compound 17, methyl 5-hydroxypicolinate]; 17.1%
